- System: HTT mRNA
- test_protocol: Splicing RT-qPCR assay, HTT canonical (CJ) and alternative (AJ) junction mRNA
- Format: cell-based, human
- recorded_conditions: Homo sapiens, canonical junction mRNA, qPCR panel; read-out: HTT CJ (decrease in CJ mRNA levels, IC50)
- Procedure: Compounds described herein were used to modulate RNA transcript abundance in cells. The expression of a target mRNA was measured by detecting the formation of an exon-exon junction in the canonical transcript (CJ). A compound mediated exon-inclusion event was detected by observing an increase in formation of a new junction with an alternative exon (AJ). Real-time qPCR assays were used to detect these splicing switches and interrogate the potency of various compounds towards different target genes. […]
pIC50: −log10 of the molar value.
The following compounds are shown together with reported pIC50 values.

{"columns": ["compound", "assay_target", "pIC50"],
 "data": [
  ["C[C@H]1CN(c2cnc3nc(-c4cc(F)c5nn(C)cc5c4)cc(Cl)c3c2)C[C@@H](C2CC2)N1 [Compound 288]", "HTT mRNA", "5.00 to 6.00"],
  ["C[C@H]1CN(c2cnc3nc(-c4cc5cn(C)nc5cc4O)cc(Cl)c3c2)C[C@H](C)N1C [Compound 404]", "HTT mRNA", "5.00 to 6.00"],
  ["Cc1cn2nc(-c3cc(Cl)c4cc(N5CCC(N6CCC6)CC5)cnc4n3)cc(C)c2n1 [Compound 349]", "HTT mRNA", "6.00 to 7.00"],
  ["C[C@@H]1CN(c2cnc3nc(-c4cc(F)c5nn(C)cc5c4)ccc3c2Cl)C[C@H](C)N1 [Compound 391]", "HTT mRNA", "< 5.00"],
  ["C[C@H]1CN(c2cnc3nc(-c4cc5cn(C)nc5c(F)c4O)cc(Cl)c3c2)C[C@H](C)N1 [Compound 280]", "HTT mRNA", "> 7.00"],
  ["Cc1c(O)c(-c2cc(-c3ccccn3)c3cc(N4C[C@@H](C)N[C@@H](C)C4)cnc3n2)cc2cn(C)nc12 [Compound 217]", "HTT mRNA", "< 5.00"],
  ["CN(c1cnc2nc(-c3cc(F)c4nn(C)cc4c3)ccc2c1)[C@@H]1CCNC1 [Compound 366]", "HTT mRNA", "< 5.00"],
  ["Cn1cc2cc(-c3cnc4cc(N5CCC(NC6CC6)C5)ccc4n3)c(O)c(F)c2n1 (centres unmarked) [Compound 175]", "HTT mRNA", "> 7.00"]
]}

====

- Tested on: MYB mRNA
- test_protocol: Splicing RT-qPCR assay, MYB canonical (CJ) and alternative (AJ) junction mRNA
- Assay type: cell-based, human
- recorded_conditions: Homo sapiens; canonical junction mRNA, RT-qPCR, A673 or K562 cells, 24 hours treatment; read-out: MYB CJ (IC50, decrease in CJ mRNA)
pIC50: −log10 of the molar value.
The following compounds are shown together with reported pIC50 values.
quantity_kind: pIC50

{"columns": ["compound", "obs_value"],
 "data": [
  ["Cc1c(O)c(-c2ccc3cc(N4CCC(N(C)C)CC4)cnc3n2)cc2cn(C)nc12 [Compound 138]", "6.00 to 7.00"],
  ["Cc1c(O)c(-c2ccc3nc(N4CCNC(C)C4)cnc3n2)cc2cn(C)nc12 (centres unmarked) [Cmpd 196]", "6.00 to 7.00"],
  ["CN(c1cnc2nc(-c3cc4cn(C)nc4c(F)c3O)ccc2c1)C1CCNCC1 [Compound 284]", "6.00 to 7.00"],
  ["CNC1CCN(c2cnc3nc(-c4cc5cn(C)nc5c(C)c4O)ccc3c2)C1 (centres unmarked) [Compound 113]", "> 7.00"],
  ["Cl.Cn1cc2cc(-c3cc(Cl)c4cc(N5CC[C@H](NCCF)C5)cnc4n3)c(O)cc2n1 [Compound 389]", "6.00 to 7.00"],
  ["Cc1c(O)c(-c2ccc3nc(N4CCNCC4)cnc3n2)cc2cn(C)nc12 [Compound 197]", "6.00 to 7.00"],
  ["CN[C@@H]1CCN(c2cnc3nc(-c4cc5cn(C)nc5c(C)c4O)nc(OC)c3c2)C1 [Compound 211]", "> 7.00"],
  ["CN1CCC[C@@H]2CN(c3cnc4nc(-c5cc6cn(C)nc6c(F)c5O)cc(Cl)c4c3)C[C@@H]21 [Compound 303]", "6.00 to 7.00"]
]}
